- Experiment summary: HepG2 cytotoxicity, primary screen, cytotoxicity control for P. falciparum antimalarial project, cell-based, ATP luminescence (AID 2303);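 note: 0% = DMSO wells and 100% = digitonin-killed cells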
- Experimental context: HepG2 viability, 24-48 h, at 10 µM, active compounds read high
inhibition for assorted molecules
Measurement name: inhibition (%)

In [3]: df
Out[3]:
                                   molecule  unit_annotation  measured_value
0  CN(CCN)Cc1ccc(-c2ccc(-c3nc4ccc(F)cc4[nH]3)s2)cc1                %              31
1  COc1ccc2nccc([C@@H](O)CN3CCC(NCc4nc5c(F)cccc5[nH]4)CC3)c2c1                %              -6
2  CCOc1ccc(-c2nonc2NC(=O)c2ccc(OC(C)C)cc2)cc1OCC                %              13
3  CS(=O)(=O)N(c1ccc(F)cc1)c1cc(C(=O)N[C@@H](Cc2ccccc2)[C@H](O)CNCc2cccc(C(F)(F)F)c2)cc(N2CCCC2=O)c1                %              -4
4  CCCc1cc(N2CCC(c3ccccc3)(N3CCCCC3)CC2)nc(Nc2ccc(OC)cc2)n1                %              13
5  CC(C)(C)c1ccc(C(=O)Nc2ccc3nc4c(c(N)c3c2)CCCC4)cc1                %              21
6  Cc1cc(N2CCCC2)nc(Nc2ccc(NC(=O)c3ccccc3F)cc2)n1                %              36
7  O=C(c1cccc(-c2ccc(-c3nc4ccc(F)cc4[nH]3)s2)c1)N1CCCCC1CN1CCC(O)C1 (centres undefined)                %              23
8  Cc1cc(C)c(-c2n[nH]c3c2C(c2cccc(Cl)c2)N(Cc2ccco2)C3=O)c(O)c1 (centres undefined)                %              -3

###

Measured growth inhibition, listed per entry.
- Experiment summary: inhibition of 3D7 malaria parasite growth – strain 3D7 (AID 2306);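 note: 0% = DMSO wells and 100% = chloroquine plus artemisinin control wells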
- Experimental context: P. falciparum 3D7 erythrocytic growth, LDH absorbance, 72 h; at 2 µM; active compounds read high
Measurement name: growth inhibition (%)

                                    compound  unit_annotation  measured_value
 0  CC1N=C(N)N=C(N)N1OCc1ccccc1 (centres undefined)                %              94
 1  Cn1cncc1C(=O)Nc1cccc(-c2ccc(-c3nc4ccc(F)cc4[nH]3)cc2)c1                %             101
 2  N#Cc1cccc(CNC(=O)c2cccc(Nc3ccnc4ccc(F)cc34)c2)c1                %              87
 3  Cc1cc2c(/C=C/C(=O)NC3CCC(CCN4CCc5ccc(C#N)cc5CC4)CC3)cccc2[nH]1 (centres undefined)                %              95
 4  N#Cc1ccc(-c2ccc(C(=O)NCCCCN3CCC(c4ccc5c(c4OCC(N)=O)CCCC5)CC3)nc2)cc1                %             100
 5  CCC(C)CN1CCN(c2ccc(NC(=O)c3cccs3)cc2)C(C)C1 (centres undefined)                %              95
 6  Cc1cccc2[nH]c(-c3ccc(-c4ccc(CN5CCC(C(N)=O)CC5)cc4)cc3)nc12                %              91
 7  O=C(O[C@@H]1CN[C@H](C#Cc2cc3c(Nc4ccc5c(cnn5Cc5ccccc5)c4)ncnc3s2)C1)N1CCCC1                %              99
 8   CC(C)CN1CCN(CCNc2c3ccccc3nc3ccccc23)CC1                %              97
 9  COc1ccc(-c2ccc(NC(=O)c3cccc(F)c3)cc2)cc1CN1CCCN(C)CC1                %             100
10  Cc1cccc(-c2nn(-c3ccccc3)cc2C(=O)Nc2nnc(C)o2)c1                %              84
11  Cc1ccc(Oc2cnn(C)c(=O)c2Nc2cccc(C(=O)NCCc3ccccn3)c2)c(C)c1                %              94
12  COc1ccc(NC(=O)[C@H](CC(C)C)Nc2cc(C)nc(NCCc3cccs3)n2)cc1                %             100
13  OC(CNCc1ccco1)Cn1c2ccc(Br)cc2c2cc(Br)ccc21 (centres undefined)                %              92
14  CC[C@H]1CN2CCc3cc(OC)c(OC)cc3[C@@H]2C[C@@H]1CC1=NCCc2c1[nH]c1ccc(OCc3ccccc3)cc21                %             101
15  CN1CCC(C(=O)Nc2cccc(-c3ccc(-c4nc5ccc(C(F)(F)F)cc5[nH]4)cc3)c2)CC1                %             100
16  CCOc1cc(C(=O)N[C@@H](Cc2ccccc2)[C@H](O)CNC(C)(C)c2cccc(OC)c2)cc(N2CCCS2(=O)=O)c1                %              99
17  C=CC[C@H](NC(=O)c1ccc(NS(=O)(=O)c2ccc3nc(N)[nH]c(=O)c3c2)cc1)C(=O)OCCCC                %              97
18  Cc1ccc(F)cc1S(=O)(=O)Nc1ccc(CCN2CCC(N3CCCCC3)CC2)cc1                %              99
19     COc1ccc(CNCCCCCCNCCc2ccc(Cl)cc2)cc1OC                %              96
20  CCCCCCCCS(=O)(=O)NCCCC1CCN(CCCCCNC(=O)C=Cc2ccc(Cl)c(Cl)c2)CC1                %              91
21  N#Cc1cccc(C(=O)Nc2cccc(-c3ccc(C(=O)Nc4cccnc4)cc3)c2)c1                %              89
22           Cc1ccc(N2C(N)=NC(N)=NC2(C)C)cc1                %              96
23  C#CCCOc1ccc2ccccc2c1CNCCCCCCNCc1c(OCCC#C)ccc2ccccc12                %             100
24  O=C(CSc1nccn1C1CCCCC1)Nc1cc(C(F)(F)F)ccc1Cl                %              96
25  CCCNCc1ccc(-c2ccc(CN(CC3CCCO3)C(=O)COc3ccccc3Cl)cc2)nc1 (centres undefined)                %              89
26    c1ccc(-c2ccc(-c3nc4ccccc4[nH]3)cc2)cc1                %              93
27  O=c1cc(NCCCNCc2ccc(Cl)c(Cl)c2)[nH]c2cc(F)cc(F)c12                %             102
28  CC(C)(C)c1ccc(CN2CCC(CNC(=O)c3cc(-c4cccc(F)c4)cs3)C2)cc1 (centres undefined)                %             100
29  NC(N)=Nc1nc(-c2cccc(NC(=O)NCc3ccc(OC(F)(F)F)cc3)c2)cs1                %             100
30        CCC(=O)Nc1nnc(Cc2ccc(OC)c(OC)c2)s1                %              93
31  N#Cc1ccc(CN2CCC(Oc3ccc(NC(=O)c4ccccc4)cc3Cl)CC2)cc1                %              84
32  CC(CN(C)C)C(=O)Nc1ccc(-c2cccc(-c3nc4ccc(C(F)(F)F)cc4[nH]3)c2)cc1 (centres undefined)                %             101
33  COc1cc(-n2c(CN3CCCC3)nc3cc(-c4ccc(Cl)cc4)sc3c2=O)ccc1OCCN1CCCC1                %              94
34  CCOC(=O)c1cnc2c(C(F)(F)F)cccc2c1Nc1ccc(O)cc1                %              96
35  COc1ccc(Nc2nc(NC3CCN(Cc4ccccc4)CC3)cc(-c3ccncc3)n2)cc1                %              88
36  COc1cc(C(C)C)ccc1C1CCN(CCCCNC(=O)c2ccc(NC(=O)c3ccc(Cl)cc3)cc2)CC1                %              98
37  COc1ccc(NC(=O)N2CCc3ccc(OCCN(C(C)C)C(C)C)cc32)cc1C(F)(F)F                %              90
38  O=C(Nc1ccccc1Br)N[C@@H]1CCN(c2ccnc3ccccc23)C1                %              91
